- measured-target: Sodium/glucose cotransporter 2 (Homo sapiens)
- Sequence (P31639 whole entry): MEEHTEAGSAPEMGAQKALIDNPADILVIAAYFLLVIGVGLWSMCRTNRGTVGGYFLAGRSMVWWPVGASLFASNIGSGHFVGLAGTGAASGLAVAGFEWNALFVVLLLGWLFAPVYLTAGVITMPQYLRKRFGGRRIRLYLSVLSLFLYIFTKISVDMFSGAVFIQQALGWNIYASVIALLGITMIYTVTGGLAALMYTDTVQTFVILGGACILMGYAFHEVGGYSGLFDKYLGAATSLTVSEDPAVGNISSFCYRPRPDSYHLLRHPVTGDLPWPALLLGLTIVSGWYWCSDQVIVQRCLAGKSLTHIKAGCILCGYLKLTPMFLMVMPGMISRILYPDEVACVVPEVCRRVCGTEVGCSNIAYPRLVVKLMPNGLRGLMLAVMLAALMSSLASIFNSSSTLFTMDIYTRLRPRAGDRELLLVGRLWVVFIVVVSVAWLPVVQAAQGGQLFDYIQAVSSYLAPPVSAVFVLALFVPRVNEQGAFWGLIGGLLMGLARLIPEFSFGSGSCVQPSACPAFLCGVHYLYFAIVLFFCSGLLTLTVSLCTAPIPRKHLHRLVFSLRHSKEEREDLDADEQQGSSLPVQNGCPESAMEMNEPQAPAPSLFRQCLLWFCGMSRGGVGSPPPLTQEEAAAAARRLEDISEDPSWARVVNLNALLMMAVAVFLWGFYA
- protocol: Inhibition of human SGLT2 expressed in CHO cells assessed as reduction of [14C]-labeled AMG after 2 hrs by liquid scintillation counting
pIC50: −log10 of the molar value.
measured-metric: pIC50

smiles-notation: CCc1ccc(Cc2cc3c(cc2Cl)OCCCOC[C@H]2O[C@@H]3[C@H](O)[C@@H](O)[C@@H]2O)cc1
pIC50: 8.80

(A) CCOc1ccc(Cc2cc3c(cc2Cl)OCCOC[C@H]2O[C@@H]3[C@H](O)[C@@H](O)[C@@H]2O)cc1
(B) CCOc1ccc(Cc2cc3c(cc2Cl)OCCCOC[C@H]2O[C@@H]3[C@H](O)[C@@H](O)[C@@H]2O)cc1
Enquiry: Larger number for pIC50: A , or B ? Lab note: record the label of whichever item you select.
Return: A
(A: 8.87, B: 8.53)
